Catalogue of compounds with associated IC50
# test-system: GIPR (CHO-K1-hGIPR cells) (Homo sapiens, UniProt P48546)
# Construct: host or cells: CHO-K1
# Sequence (P48546 22-466): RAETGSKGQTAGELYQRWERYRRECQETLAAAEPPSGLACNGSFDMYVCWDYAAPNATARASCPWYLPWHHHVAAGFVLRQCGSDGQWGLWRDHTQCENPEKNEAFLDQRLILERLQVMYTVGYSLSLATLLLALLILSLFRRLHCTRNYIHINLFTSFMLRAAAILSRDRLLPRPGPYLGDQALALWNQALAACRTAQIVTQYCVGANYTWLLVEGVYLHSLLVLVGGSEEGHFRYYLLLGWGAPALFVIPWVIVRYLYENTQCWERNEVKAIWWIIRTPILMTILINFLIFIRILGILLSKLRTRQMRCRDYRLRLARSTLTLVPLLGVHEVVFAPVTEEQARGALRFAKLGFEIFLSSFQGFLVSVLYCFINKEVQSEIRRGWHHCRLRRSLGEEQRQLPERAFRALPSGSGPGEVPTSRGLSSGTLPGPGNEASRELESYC
# test-name: FACS binding assay
# run-conditions: competition with 20 nM GIP-057, 4° C., 1 hour, read-out: pIC50 Category (converted)
*1 amine or outer side, *2 acyl side, *3 side chain or, on linkers, in order; H or OH if unused. Where a SMILES comes first, the peptide text is derived from it. Bridges are numbered along the chain shown (N, C = ends). [ ]: non-standard residue; d: D form. The star is where a group is joined. X3 = O=C(O)CN1CCN(CC(=O)O)CCN(CC(=O)NCCCOCCOCCOCCCN*)CCN(CC(=O)O)CC1; Trp(5-Cl) = N[C@@H](Cc1c[nH]c2ccc(Cl)cc12)C(=O)O; Pyridine(2,6-diCH2) = c1cc(C[*:1])nc(C[*:2])c1; Glutaryl = O=C(CCCC(=O)[*:2])[*:1]; X7 = c1cc(CSCCN[*:2])cc(C[*:1])c1; Hyp = O=C(O)[C@@H]1C[C@@H](O)CN1; Suc = O=C(CCC(=O)[*:2])[*:1]; Thp = NC1(C(=O)O)CCOCC1; Aib = CC(C)(N)C(=O)O; Nlys = NCCCCNCC(=O)O; Sar = CNCC(=O)O

compound	test-system	property-measured	reported
CC[C@H](C)[C@@H]1NC(=O)[C@H](CC(C)C)NC(=O)C2(CCOCC2)NC(=O)[C@@H](NC(=O)[C@@H](CC(C)C)NC(=O)[C@H](CCC(=O)O)NC(=O)CN(C)C(=O)[C@H](Cc2c[nH]c3ccc(Cl)cc23)NC(=O)[C@H](Cc2c[nH]c3ccccc23)NC(=O)[C@H](CC(=O)O)NC(C)=O)CSCc2cccc(n2)CSC[C@@H](C(N)=O)NC1=O [GIP-183] (Ac-DW[Trp(5-Cl)][Sar]E[dL]C[Thp]LIC-NH2; linker 7-11 via Pyridine(2,6-diCH2))	GIPR (CHO-K1-hGIPR cells) (Homo sapiens, UniProt P48546)	IC50	< 10 nM
CC[C@H](C)[C@@H]1NC(=O)[C@H](CC(C)C)NC(=O)C2(CCOCC2)NC(=O)[C@@H](NC(=O)[C@@H](CC(C)C)NC(=O)[C@H](CCC(=O)O)NC(=O)[C@@H]2C[C@@H](O)CN2C(=O)[C@H](Cc2c[nH]c3ccc(Cl)cc23)NC(=O)[C@H](Cc2c[nH]c3ccccc23)NC(=O)CCCC(=O)O)CSCc2cccc(n2)CSC[C@@H](C(N)=O)NC1=O [GIP-214] (Glutaryl-W[Trp(5-Cl)][Hyp]E[dL]C[Thp]LIC-NH2; linker 6-10 via Pyridine(2,6-diCH2))	GIPR (CHO-K1-hGIPR cells) (Homo sapiens, UniProt P48546)	IC50	< 10 nM
CC[C@H](C)[C@@H]1NC(=O)[C@H](CC(C)C)NC(=O)C(C)(C)NC(=O)[C@@H](NC(=O)[C@@H](CC(C)C)NC(=O)[C@H](CCC(=O)O)NC(=O)[C@@H]2CCCN2C(=O)[C@H](Cc2c[nH]c3ccccc23)NC(=O)[C@H](Cc2c[nH]c3ccccc23)NC(=O)[C@H](CC(=O)O)NC(=O)CCC(=O)NCCCOCCOCCOCCCNC(=O)CN2CCN(CC(=O)O)CCN(CC(=O)O)CCN(CC(=O)O)CC2)CSCc2cccc(c2)CSCCNC1=O [GIP-129] ({X3-Suc}-DWWPE[dL]C[Aib]LI; linker 7-C via X7)	GIPR (CHO-K1-hGIPR cells) (Homo sapiens, UniProt P48546)	IC50	10 to 79.4 nM
CC[C@H](C)[C@@H]1NC(=O)[C@H](CC(C)C)NC(=O)C2(CCOCC2)NC(=O)[C@@H](NC(=O)[C@@H](CC(C)C)NC(=O)[C@H](CCC(=O)O)NC(=O)CN(CCCCN)C(=O)[C@H](Cc2c[nH]c3ccc(Cl)cc23)NC(=O)[C@H](Cc2c[nH]c3ccccc23)NC(=O)[C@H](CC(=O)O)NC(C)=O)CSCc2cccc(n2)CSC[C@@H](C(N)=O)NC1=O [GIP-186] (Ac-DW[Trp(5-Cl)][Nlys]E[dL]C[Thp]LIC-NH2; linker 7-11 via Pyridine(2,6-diCH2))	GIPR (CHO-K1-hGIPR cells) (Homo sapiens, UniProt P48546)	IC50	< 10 nM

Recall and state the measured IC50 for CC[C@H](C)[C@@H]1NC(=O)[C@H](CC(C)C)NC(=O)C2(CCOCC2)NC(=O)[C@@H](NC(=O)[C@@H](CC(C)C)NC(=O)[C@H](CCC(N)=O)NC(=O)[C@@H]2C[C@@H](O)CN2C(=O)[C@H](Cc2c[nH]c3ccc(Cl)cc23)NC(=O)[C@H](Cc2c[nH]c3ccccc23)NC(=O)[C@H](CC(=O)O)NC(C)=O)CSCc2cccc(n2)CSC[C@@H](C(N)=O)NC1=O [GIP-193] (Ac-DW[Trp(5-Cl)][Hyp]Q[dL]C[Thp]LIC-NH2; linker 7-11 via Pyridine(2,6-diCH2)) .
< 10 nM
